# SYSTEM: Nuclear receptor coactivator 2 (Homo sapiens)
# ASSAY COMMENT: SRC2 coactivator transcriptional activity inhibitors, confirmation, cell-based, luminescence, HEK293, triplicate (AID 652008);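 note: 0% = DMSO-treated cells and 100% = Gossypol at 36 µM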
# CONDITION NOTES: HEK293 GAL4-SRC2 luciferase reporter, at 8.9 µM
The source made the active and inactive calls.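 Rule for the calls: active = mean inhibition above 46.5%, the solvent-only control mean plus 3 SD; inactive = the rest.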
Pick one and only one: 1 (active), -1 (inactive)

Input line: What is the recorded call for this compound in the test? CC(=O)Nc1cc(-c2ccc(C(=O)NC3CC3)cc2)cn2c(-c3cccc(C(F)(F)F)c3)cnc12
Output line: -1

Input line: Follow-up entry: COC(=O)[C@]12C[C@H](CC(=O)N3CCCC3)C(=O)N(CCC3=CCCCC3)C1=C[C@H](C(C)C)O[C@@H]2C1CC1
Output line: -1

Input line: Do the same for COc1ccc(OC)c(NC(=O)COC(=O)CCCN=C2NS(=O)(=O)c3ccccc32)c1 please
Output line: -1

Input line: Similarly, COc1ccc(OCCCCn2c(CO)nc3ccccc32)cc1 ?
Output line: -1

Input line: What about COCc1cc(N2CCN(C(=O)OC(C)(C)C)C[C@H]2C)ccc1N1CCS(=O)(=O)CC1 ?
Output line: -1

Input line: Try this compound next: COc1ccc(C(=O)Nc2nc3ccccc3[nH]2)cc1
Output line: -1

Input line: One more compound: CC(C)(C)c1ccc(Oc2ccc(NC(=O)c3ccco3)cn2)cc1
Output line: -1

Input line: Another compound to check: CCN(CC)c1nc(C=Cc2ccc(N(C)C)cc2)c2nccnc2n1
Output line: -1

Input line: And what about the compound COc1cccc(NC(=O)Nc2nnc(CC(=O)NCc3ccccc3)s2)c1 ?
Output line: -1

Input line: Would you mind doing Cc1cc(Nc2ccccc2)n(C(=O)c2ccc(N)cc2)n1 as well?
Output line: -1

Input line: What about this compound? Cc1ccc(C2CC(c3cccs3)=NN2C(=O)CSC2=NCCS2)cc1 (stereo unspecified)
Output line: -1

Input line: And for CC1CCC(C(C)C)C(OC(=O)Cn2c(-c3ccc(F)cc3)[n+](C)c3ccccc32)C1 (stereo unspecified) ?
Output line: -1

Input line: Same question, COc1ccc(CC(=O)Nc2cccc(-c3nnc(-c4ccccc4)o3)c2)cc1OC this time
Output line: 1

Input line: Next up: O=C(N/N=C/c1ccc(O)cc1O)c1ccc(CN2C(=O)c3cccc4cccc2c34)cc1
Output line: -1

Input line: Entry to check: CC1C/C(=C/c2ccncc2)C(=O)/C(=C/c2ccncc2)C1 (stereo unspecified)
Output line: 1

Input line: And then COc1ccc(CNCc2ccc(C(F)(F)F)cc2)cc1OC , what is it?
Output line: -1

Input line: Check O=C1/C(=C\c2ccccc2)CN(C(=O)CCN2CCCCC2)C/C1=C/c1ccccc1 too.
Output line: -1

Input line: # repeat for CC1=C(C(=O)OCc2ccc3c(c2)OCO3)C(c2ccc(O)c([N+](=O)[O-])c2)NC(=O)N1 (stereo unspecified)
Output line: -1

Input line: Follow-up item: O=C(C1=NN[C@@H]2C(=O)N(c3cccc(C(F)(F)F)c3)C(=O)[C@H]12)c1ccc2ccccc2n1
Output line: -1

Input line: Let us now turn to O=C(CCc1nnc(-c2ccc(-c3ccccc3)cc2)o1)NCCc1ccccn1
Output line: 1

Input line: Quick one: O=C(c1ccccc1F)N1CCN(S(=O)(=O)c2ccc3c(c2)OCCO3)CC1
Output line: -1

Input line: Same again, this time with CC(C)CCSc1nc(N)c(C#N)cc1C#N
Output line: -1

Input line: Please give the result for Cc1nnc(SC(=O)N2c3ccccc3Sc3ccccc32)s1 too.
Output line: 1

Input line: Then COCC(=O)OC1CCn2c1nc1c2C(=O)C(C)=C(NC(C)=O)C1=O (stereo unspecified) ?
Output line: 1

Input line: Continue with COc1ccc(C(=O)c2ccc(CC(=O)O)s2)cc1
Output line: -1

Input line: Also, CC(=O)N(CCc1ccccc1)c1ccc2c(c1)C1CC2CCN1C(=O)OCc1ccccc1 (stereo unspecified) please.
Output line: -1

Input line: Then this compound: O=S(=O)(c1ccc(NC(=S)NCc2ccco2)cc1)N1CCCCC1
Output line: -1

Input line: Next compound: COc1ccc(CNCCNC(=O)c2cccs2)c(OC)c1OC
Output line: -1

Input line: Similarly, COC(=O)Cc1[nH]n(-c2nc3ccccc3s2)c(=O)c1C(C)=Nc1ccc(OC)cc1 ?
Output line: 1

Input line: CCOC(=O)c1c(NC(=O)/C=C/C(=O)O)sc(C)c1-c1ccc(C(C)(C)C)cc1 ?
Output line: -1

Input line: Same lookup for C=CCc1cccc2cc(C(=O)Nc3ccc(CC(=O)O)cc3)c(=O)oc12 , please.
Output line: -1
